Study target: human NTCP (Homo sapiens, UniProt Q14973)
Sequence (Q14973 1-349): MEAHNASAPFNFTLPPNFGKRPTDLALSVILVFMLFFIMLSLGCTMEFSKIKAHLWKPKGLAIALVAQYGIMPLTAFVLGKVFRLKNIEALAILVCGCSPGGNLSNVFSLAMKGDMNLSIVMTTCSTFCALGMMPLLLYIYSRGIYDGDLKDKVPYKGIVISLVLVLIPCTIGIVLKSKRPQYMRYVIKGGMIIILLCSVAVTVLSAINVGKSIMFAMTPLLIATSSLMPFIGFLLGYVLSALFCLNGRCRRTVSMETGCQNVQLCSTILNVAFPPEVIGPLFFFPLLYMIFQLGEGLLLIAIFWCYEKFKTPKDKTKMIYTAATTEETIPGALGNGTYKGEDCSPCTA
Assay explanation: Screening taurocholate uptake assay (96-well, [14C]taurocholate, 10 µM drug)
Condition details: ranking over the functional and the binding screening assay
Structures can show the parent of a compound that is named as a salt.
Measurement label: Ranking score
// no unit string in output, number only

compound="c1ccc(-c2ccc(C(c3ccccc3)n3ccnc3)cc2)cc1 (stereo not drawn) [Bifonazole]" recorded_value=164.499

Reported Ranking score of CCCCCC[C@H]1C(=O)O[C@H](C)[C@H](NC(=O)c2cccc(NC=O)c2O)C(=O)O[C@@H](C)[C@@H]1OC(=O)CC(C)C [Antimycin A] : 15.6525

Sure, the documented Ranking score for CO[C@@]1(NC(=O)CSCC#N)C(=O)N2C(C(=O)O)=C(CSc3nnnn3C)CS[C@@H]21 [Cefmetazole sodium salt] is 266.713

---

Study target: human NTCP (Homo sapiens, UniProt Q14973)
Sequence (Q14973 1-349): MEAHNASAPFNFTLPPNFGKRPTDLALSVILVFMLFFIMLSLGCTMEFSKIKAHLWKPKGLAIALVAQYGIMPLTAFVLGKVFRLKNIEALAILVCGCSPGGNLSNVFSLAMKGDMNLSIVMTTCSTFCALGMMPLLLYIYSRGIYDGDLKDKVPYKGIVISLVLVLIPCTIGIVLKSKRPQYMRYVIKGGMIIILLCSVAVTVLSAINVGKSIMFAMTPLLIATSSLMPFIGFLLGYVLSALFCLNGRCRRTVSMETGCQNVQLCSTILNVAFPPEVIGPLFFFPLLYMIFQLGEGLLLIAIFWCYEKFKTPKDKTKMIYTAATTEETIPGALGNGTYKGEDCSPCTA
Assay explanation: Screening taurocholate uptake assay (96-well, [14C]taurocholate, 10 µM drug)
Condition details: ranking score beside the functional and binding assay B-scores of the screen
Structures can show the parent of a compound that is named as a salt.
Measurement label: Ranking score
Just the number, please, no unit after it.

Record excerpt, results attached:
compound=CC(=O)Nc1ccc(CC(=O)O)cc1 recorded_value=719.277
compound=CC(=O)Oc1ccccc1C(=O)Oc1ccccc1C(=O)O recorded_value=734.743

So for Cc1nc2ccccn2c(=O)c1CCN1CCC(C(=O)c2ccc(F)cc2)CC1 , the logged Ranking score turned out to be 829.554

Field Ranking score (entry NCCc1cc[nH]n1 [Betazole hydrochloride] ) reads 836.299

Ranking score measured on C[C@H]1O[C@H](O[C@H]2[C@H](O)[C@@H](O)[C@@H](O[C@H]3[C@H](O)[C@@H](O)C(O)O[C@@H]3CO)O[C@@H]2CO)[C@H](O)[C@@H](O)[C@@H]1N[C@H]1C=C(CO)[C@@H](O)[C@H](O)[C@H]1O (stereo partly shown) = 792.136

Given item CCCCC(C)(O)C/C=C/[C@H]1[C@H](O)CC(=O)[C@@H]1CCCCCCC(=O)OC (mixture of isomers) , the value recorded as its Ranking score is 671.728

Quick note, Ranking score for O=C(O)C(O)C(O)C(=O)O.O=C(c1ccc(F)cc1)C1CCN(CCn2c(=O)[nH]c3ccccc3c2=O)CC1 [Ketanserin tartrate hydrate] landed at 727.865

Form field Ranking score, entry NC(=O)c1ncn([C@@H]2O[C@H](CO)[C@@H](O)[C@H]2O)n1 : 712.803

compound CC(C(=O)O)c1ccc2c(c1)Cc1cccnc1O2 (stereo not shown) , Ranking score observed: 817.912

The value of Ranking score measured for the compound CC1(C)O[C@@H]2C[C@H]3[C@@H]4CCC5=CC(=O)C=C[C@]5(C)[C@H]4[C@@H](O)C[C@]3(C)[C@]2(C(=O)CO)O1 [Desonide] turned out to be 665.567

# Ranking score (compound: Cc1ccc(-c2cc(C(F)(F)F)nn2-c2ccc(S(N)(=O)=O)cc2)cc1 ) is 728.485

GET /value?item= CCC1NC(=O)c2cc(S(N)(=O)=O)c(Cl)cc2N1 (stereo not shown) &field=Ranking score returns 787.128

Ranking score reading for NC12CC3CC(CC(C3)C1)C2.O=C(O)/C=C/C(=O)O [Adamantamine fumarate] : 748.28

GET /value?item= COC(=O)Nc1nc2cc(C(=O)c3ccc(F)cc3)ccc2[nH]1 &field=Ranking score returns 683.74

Notebook: CCOc1nc2cccc(C(=O)O)c2n1Cc1ccc(-c2ccccc2-c2nnn[nH]2)cc1 , Ranking score read as 798.474

The compound listed as Cc1cc(C)nc([N-]S(=O)(=O)c2ccc(N)cc2)n1.[Na+] [Sulfamethazine sodium salt] has a reported Ranking score of 760.788

---

Study target: human NTCP (Homo sapiens)
Assay explanation: Screening taurocholate uptake assay (96-well, [14C]taurocholate, 10 µM drug)
Condition details: Prestwick library screen, taurocholate uptake, 10 µM drug
Counter-ions that a name gives are not always drawn.
Decision: B-score functional assay beneath -0.2 gives class 1; B-score functional assay meeting or exceeding -0.2 gives class 0.

q: I wonder whether CCCCN(CCCC)CCCOC(=O)c1ccc(N)cc1 has B-score functional assay below -0.2. Can you tell?
a: class 0

q: Take the compound CN1CCN(CCCN2c3ccccc3Sc3ccc(C(F)(F)F)cc32)CC1 [Trifluoperazine dihydrochloride] and say whether its B-score functional assay is less than -0.2.
a: class 0

q: B-score functional assay under -0.2? Item: CCC1(c2ccc(N)cc2)CCC(=O)NC1=O (stereo not shown) [Glutethimide, para-amino]
a: class 0

q: Please let me know if CC1(C)O[C@@H]2C[C@H]3[C@@H]4CCC5=CC(=O)C=C[C@]5(C)[C@H]4[C@@H](O)C[C@]3(C)[C@]2(C(=O)CO)O1 [Desonide] shows B-score functional assay below -0.2.
a: class 1

---

Study target: human NTCP (Homo sapiens)
Sequence (Q14973 1-349): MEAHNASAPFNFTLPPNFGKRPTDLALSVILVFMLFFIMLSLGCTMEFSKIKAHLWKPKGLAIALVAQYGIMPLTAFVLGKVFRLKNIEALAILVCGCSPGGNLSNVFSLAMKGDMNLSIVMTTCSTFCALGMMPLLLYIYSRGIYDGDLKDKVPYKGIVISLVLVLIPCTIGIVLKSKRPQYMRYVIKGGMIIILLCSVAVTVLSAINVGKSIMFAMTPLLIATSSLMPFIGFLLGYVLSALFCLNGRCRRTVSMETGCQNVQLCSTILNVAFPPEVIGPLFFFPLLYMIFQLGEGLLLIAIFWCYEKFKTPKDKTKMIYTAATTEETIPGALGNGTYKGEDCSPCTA
Assay explanation: Screening taurocholate uptake assay (96-well, [14C]taurocholate, 10 µM drug)
Condition details: ranking score beside the functional and binding assay B-scores of the screen
Counter-ions that a name gives are not always drawn.
Measurement label: Ranking score
Please respond with just the number, no unit label.

Per the records, this compound ( CC(=O)Nc1c(I)c(NC(C)=O)c(I)c(C(=O)O)c1I.O.O [Diatrizoic acid dihydrate] ) has Ranking score equal to 739.319

The value of Ranking score measured for the compound O=C1NCC2(CCN(CCc3ccccc3)CC2)O1 [Fenspiride hydrochloride] turned out to be 788.391

Record summary for CCCC(C)(COC(N)=O)COC(=O)NC(C)C (stereo not drawn) : reported Ranking score = 768.775

Recorded Ranking score (compound N[C@@H]1CON=C1O ): 667.017

The recorded Ranking score for C#CCN(C)Cc1ccccc1 [Pargyline hydrochloride] is 685.259

Reported Ranking score for COc1ccc(Cc2nccc3cc(OC)c(OC)cc23)cc1OC [Papaverine hydrochloride] was 728.955

Input CC1NC(=O)NC1=O (stereo not drawn) . Output Ranking score: 746.749

Data point: CCN(CCO)CCCC(C)Nc1ccnc2cc(Cl)ccc12 (stereo not drawn) [Hydroxychloroquine sulfate] ; Ranking score = 775.907

Quick note, Ranking score for CN(C)[C@@H]1C(O)=C(C(N)=O)C(=O)[C@@]2(O)C(O)=C3C(=O)c4c(O)cccc4[C@@](C)(O)[C@H]3C[C@@H]12 [Tetracycline hydrochloride] landed at 755.57

---

Study target: human NTCP (Homo sapiens, UniProt Q14973)
Sequence (Q14973 1-349): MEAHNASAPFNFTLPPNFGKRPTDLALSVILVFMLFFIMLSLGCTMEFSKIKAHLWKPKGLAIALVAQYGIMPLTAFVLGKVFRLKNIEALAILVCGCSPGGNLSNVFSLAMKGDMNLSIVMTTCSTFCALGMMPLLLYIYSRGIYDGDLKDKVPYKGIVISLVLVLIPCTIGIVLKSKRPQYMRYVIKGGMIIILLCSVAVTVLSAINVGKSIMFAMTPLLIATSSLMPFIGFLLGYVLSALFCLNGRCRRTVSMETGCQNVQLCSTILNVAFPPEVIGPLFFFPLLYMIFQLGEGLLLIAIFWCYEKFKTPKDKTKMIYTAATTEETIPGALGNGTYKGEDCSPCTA
Assay explanation: Screening fluorescent competitive Myrcludex B-FITC binding assay (96-well, 10 µM drug)
Condition details: Prestwick library screen, Myrcludex B-FITC binding, 10 µM drug
Counter-ions that a name gives are not always drawn.
So basically, if B-score binding assay comes in under 0.03 it's True, and if it's 0.03 or more it's False.

molecule="C[C@H]1O[C@H](O[C@H]2[C@H](O)[C@@H](O)[C@@H](O[C@H]3[C@H](O)[C@@H](O)C(O)O[C@@H]3CO)O[C@@H]2CO)[C@H](O)[C@@H](O)[C@@H]1N[C@H]1C=C(CO)[C@@H](O)[C@H](O)[C@H]1O (stereo partly shown)" assigned_class=True
molecule=CCCc1cc(=O)[nH]c(=S)[nH]1 assigned_class=False
molecule="CN(C)CCC=C1c2ccccc2CCc2ccccc21.Cl [Amitryptiline hydrochloride]" assigned_class=False
molecule="O=c1n(CCCN2CCN(c3cccc(Cl)c3)CC2)nc2ccccn12 [Trazodone hydrochloride]" assigned_class=True
molecule="O=C1c2cccc3c2[C@H](CCC3)CN1[C@@H]1CN2CCC1CC2 [Palonosetron hydrochloride]" assigned_class=True
molecule="CCN(CCO)CCCC(C)Nc1ccnc2cc(Cl)ccc12 (stereo not shown) [Hydroxychloroquine sulfate]" assigned_class=False
molecule=C#CCN[C@@H]1CCc2ccccc21 assigned_class=False
molecule="O=C1c2c(O)ccc(O)c2C(=O)c2c(NCCNCCO)ccc(NCCNCCO)c21 [Mitoxantrone dihydrochloride]" assigned_class=True

q: Is B-score binding assay strictly under 0.03 for the entry Clc1cnccn1 ?
a: True

q: Would you kindly verify if B-score binding assay of CC(C)NC[C@@H](O)COc1ccc(CC(N)=O)cc1 [(R)-(+)-Atenolol] is strictly less than 0.03?
a: True

q: Strictly below 0.03: is that where B-score binding assay of CN(C)CC/C=C1/c2ccccc2Sc2ccc(Cl)cc21 [Chlorprothixene hydrochloride] sits?
a: True

// provenance: paper PMC5681660
